Attribution: the supplement of paper PMC7877785

We begin with a simple list: items and their reported self-splicing fitness (ln).
assay: self-splicing fitness, log relative to wild type (ln ratio); higher = more splicing; Tetrahymena group I intron in knt gene, E. coli kanamycin selection, DiMSum; sequences stand for … in CUCUCU…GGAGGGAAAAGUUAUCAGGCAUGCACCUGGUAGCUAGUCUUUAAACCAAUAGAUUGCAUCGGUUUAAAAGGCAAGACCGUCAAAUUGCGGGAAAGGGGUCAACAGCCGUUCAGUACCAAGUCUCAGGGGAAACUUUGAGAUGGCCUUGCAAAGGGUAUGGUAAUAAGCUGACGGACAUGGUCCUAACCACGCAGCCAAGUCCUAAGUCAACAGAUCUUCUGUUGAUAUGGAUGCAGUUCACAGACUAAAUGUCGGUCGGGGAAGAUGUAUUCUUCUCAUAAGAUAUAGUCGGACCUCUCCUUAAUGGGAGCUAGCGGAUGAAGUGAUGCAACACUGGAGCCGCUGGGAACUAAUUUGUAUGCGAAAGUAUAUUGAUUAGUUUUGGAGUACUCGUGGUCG; conditions: 37 °C;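 further: selection with 25 µg/mL kanamycin versus none on LB agar overnight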
Returns: the value as a bare number; no unit string appended.

# annotated cases, reported self-splicing fitness (ln) shown
Check the records and state self-splicing fitness (ln) for `CCCGAGCAAUAUUACGCGUC` -2.91

Check the records and state self-splicing fitness (ln) for `GGAGAGCAAUAUUACGCACG` -0.798

Check the records and state self-splicing fitness (ln) for `UCAUAGCAAUAUUACGGAAU` -3.09

Check the records and state self-splicing fitness (ln) for `UUAAAGCAAUAUUACGCGCA` -0.0874

Check the records and state self-splicing fitness (ln) for `ACGCAGCAAUAUUACGGGUG` -0.519

Others:
Check the records and state self-splicing fitness (ln) for `UUCAAGCAAUAUUACGCGUA` -0.0781

Check the records and state self-splicing fitness (ln) for `UGCCAGCAAUAUUACGCGUU` -0.989

Check the records and state self-splicing fitness (ln) for `GUUUAGCAAUAUUACGUACG` -0.33

---

assay: self-splicing fitness, log relative to wild type (ln ratio); higher = more splicing; Tetrahymena group I intron in knt gene, E. coli kanamycin selection, DiMSum; sequences stand for … in CUCUCU…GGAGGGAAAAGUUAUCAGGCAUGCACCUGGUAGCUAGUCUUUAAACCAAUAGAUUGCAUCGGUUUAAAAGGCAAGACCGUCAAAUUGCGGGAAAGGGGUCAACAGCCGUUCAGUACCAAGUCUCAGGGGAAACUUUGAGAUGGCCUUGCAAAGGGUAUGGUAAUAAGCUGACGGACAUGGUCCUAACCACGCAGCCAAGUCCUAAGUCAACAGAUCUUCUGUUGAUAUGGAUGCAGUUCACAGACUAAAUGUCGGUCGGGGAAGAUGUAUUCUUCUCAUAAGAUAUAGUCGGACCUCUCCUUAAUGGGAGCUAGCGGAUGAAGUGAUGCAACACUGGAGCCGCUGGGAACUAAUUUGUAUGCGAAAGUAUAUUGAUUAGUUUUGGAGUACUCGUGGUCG; conditions: 30 °C
We begin with a simple list: items and their reported self-splicing fitness (ln).

# annotated cases, reported self-splicing fitness (ln) shown
Check the records and state self-splicing fitness (ln) for `UCAAAGCAAUAUUACGCCGU` -2.43

Check the records and state self-splicing fitness (ln) for `AAGUAGCAAUAUUACGUUAG` -3.51

Check the records and state self-splicing fitness (ln) for `UUCUAGCAAUAUUACGUAGG` -2.25

Check the records and state self-splicing fitness (ln) for `AUCAAGCAAUAUUACGAGCG` -1.92

Check the records and state self-splicing fitness (ln) for `ACAUAGCAAUAUUACGUGCG` -1.05

Check the records and state self-splicing fitness (ln) for `GAUUAGCAAUAUUACGGAUA` -1.36

Others:
Check the records and state self-splicing fitness (ln) for `ACCGAGCAAUAUUACGUAAA` -4.22

Check the records and state self-splicing fitness (ln) for `UCGGAGCAAUAUUACGGAUC` -3.21
